All figures here come from PubChem BioAssay (EPA / NIEHS).

Read-out: E-selectin (Homo sapiens) (UniProt P16581)
Sequence (P16581 whole entry, looked up): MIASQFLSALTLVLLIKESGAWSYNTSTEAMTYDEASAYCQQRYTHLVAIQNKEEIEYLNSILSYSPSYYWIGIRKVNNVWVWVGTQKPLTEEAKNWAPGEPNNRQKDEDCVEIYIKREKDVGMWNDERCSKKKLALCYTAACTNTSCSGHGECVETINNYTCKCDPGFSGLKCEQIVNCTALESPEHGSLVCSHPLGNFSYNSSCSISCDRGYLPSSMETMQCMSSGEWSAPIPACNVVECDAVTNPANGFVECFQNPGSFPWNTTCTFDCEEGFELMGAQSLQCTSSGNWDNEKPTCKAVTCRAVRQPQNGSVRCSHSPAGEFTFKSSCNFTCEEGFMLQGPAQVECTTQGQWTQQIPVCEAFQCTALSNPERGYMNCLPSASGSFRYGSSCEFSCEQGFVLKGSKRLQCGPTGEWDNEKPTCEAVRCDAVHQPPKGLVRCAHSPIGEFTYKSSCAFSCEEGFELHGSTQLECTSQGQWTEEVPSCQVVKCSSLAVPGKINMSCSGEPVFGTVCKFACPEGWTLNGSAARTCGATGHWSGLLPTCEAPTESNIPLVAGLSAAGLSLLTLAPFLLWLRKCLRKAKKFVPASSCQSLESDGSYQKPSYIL
protocol: BSK_3C_Eselectin: BioMAP Diversity Plus: 3C Assay for Eselectin Biomarker Activity (AID 2283015)
recorded_conditions: primary human endothelial cells (HUVEC); actives raise or lower the signal
The source made the active and inactive calls. How the source made its calls: active means hit-call score of the fitted dose curve at least 0.9, where 1 is the maximum; inactive means score below 0.9.
Pick from yes (1) (active), no (0) (inactive) when you respond.

Below, 4 compounds whose answers are already recorded.
compound	group
CCCCC(CC)C(=O)O (stereo unspecified)	no (0)
CC(=O)Nc1ccc(O)cc1	no (0)
Cc1ccc(N=Nc2c(O)ccc3ccccc23)c(C)c1	no (0)
CCOC(=O)CN[C@@H](C(=O)N1CC[C@H]1C(=O)NCc1ccc(/C(N)=N/O)cc1)C1CCCCC1	no (0)

Asked: Identify the outcome logged in this assay for the compound shown: CC[N+](CC)(CC)Cc1ccccc1
Given back: no (0)

Asked: Identify the outcome logged in this assay for the compound shown: OCCN1CN(CCO)CN(CCO)C1
Given back: yes (1)

Asked: Identify the outcome logged in this assay for the compound shown: CCCCC(CC)C(=O)OCCOCCOCCOCCOC(=O)C(CC)CCCC (stereo unspecified)
Given back: yes (1)

Asked: Identify the outcome logged in this assay for the compound shown: CN(Cc1cnc2nc(N)nc(N)c2n1)c1ccc(C(=O)N[C@@H](CCC(=O)O)C(=O)O)cc1
Given back: no (0)

Asked: Identify the outcome logged in this assay for the compound shown: OCC(F)(F)C(F)(F)C(F)(F)C(F)(F)C(F)(F)C(F)(F)C(F)(F)C(F)(F)C(F)(F)C(F)(F)C(F)(F)F
Given back: no (0)

Asked: Identify the outcome logged in this assay for the compound shown: CN(C)CCOC(c1ccccc1)c1ccccc1
Given back: no (0)

Asked: Identify the outcome logged in this assay for the compound shown: Clc1ccc(Nc2nnc(Cc3ccncc3)c3ccccc23)cc1
Given back: yes (1)

====

protocol: CCTE_Shafer_MEA_acute_firing_rate_mean: CCTE's Neural Acute Assay for Mean Firing Rate, Shafer Lab (AID 2284009);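 further: analyzed for loss of signal so actives lower firing rate relative to DMSO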
Active and inactive are the calls of the source. Rule for the calls: active = hit-call score of the fitted dose curve at least 0.9, where 1 is the maximum; inactive = score below 0.9.
Pick from label 1 (active), label 0 (inactive) when you respond.

Asked: Identify the outcome logged in this assay for the compound shown: CCCCC=O
Given back: label 0

Asked: Identify the outcome logged in this assay for the compound shown: CC(=O)Nc1ccc(O)cc1
Given back: label 0

====

protocol: BSK_SAg_PBMCCytotoxicity: PBMC Cytotoxicity Assessment in the BioMAP Diversity Plus: SAg Assay (AID 2283093);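 further: PBMC viability measured as Alamar Blue reduction fluorescence at 546/580 nm; fitted both ways against DMSO so a hit may be loss or gain of signal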
recorded_conditions: primary human HUVEC with PBMC
Calls of active or inactive are those of the source. The calls were made as follows: active = hit-call score of the fitted dose curve at least 0.9, where 1 is the maximum; inactive = score below 0.9.
Pick from active, inactive when you respond.

Below, 3 molecules whose answers are already recorded.
molecule	group
Cc1cccc2c1ccc1ccccc12	inactive
O=C(O)CCC(F)(F)C(F)(F)C(F)(F)C(F)(F)C(F)(F)F	inactive
NC(=NCCCCCCN=C(N)/N=C(\N)Nc1ccc(Cl)cc1)/N=C(\N)Nc1ccc(Cl)cc1	active

Asked: Identify the outcome logged in this assay for the molecule shown: COc1cccc(O)c1
Given back: inactive

Asked: Identify the outcome logged in this assay for the molecule shown: CCCCCCCCCCCCCCCCCC[N+](C)(C)Cc1ccccc1
Given back: active

Asked: Identify the outcome logged in this assay for the molecule shown: C=CC(C)(CCC=C(C)C)OC(C)=O (stereo unspecified)
Given back: inactive

====

protocol: ACEA_ER_AUC_viability: ACEA Biosciences xCELLigence Real-Time Cell Analysis on Estrogen Receptor Agonism for Viability (AID 2283782);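 further: continuous compound exposure with impedance area under curve over 80 h; hit means loss of impedance signal meaning reduced cell growth or viability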
Records with an inconclusive call do not appear. Active and inactive are the calls of the source. The calls were made as follows: active = hit-call score of the fitted dose curve at least 0.9, where 1 is the maximum; inconclusive = response in the unintended direction; inactive = score below 0.9.
Pick from 1 (active), -1 (inactive) when you respond.

Below, 5 molecules whose answers are already recorded.
molecule	group
O=S(=O)(O)C(F)(F)C(F)(F)C(F)(F)C(F)(F)C(F)(F)C(F)(F)C(F)(F)C(F)(F)C(F)(F)C(F)(F)F	-1
CC(C)CCOCCC(C)C	1
C=COC(=O)C(C)(C)CCCCCC	1
OCCN1CN(CCO)CN(CCO)C1	1
CCO[Si](C)(C)OCC	-1

Asked: Identify the outcome logged in this assay for the molecule shown: CCCCCCCCCC=CCC1CC(=O)OC1=O (configuration not stated)
Given back: -1

Asked: Identify the outcome logged in this assay for the molecule shown: C=CC(=O)OCCC(F)(F)C(F)(F)C(F)(F)C(F)(F)C(F)(F)C(F)(F)C(F)(F)C(F)(F)F
Given back: -1

Asked: Identify the outcome logged in this assay for the molecule shown: CCCCCC(C)OC(=O)COc1ccc(Cl)c2cccnc12 (configuration not stated)
Given back: -1

Asked: Identify the outcome logged in this assay for the molecule shown: O=C(CCCN1CCC(O)(c2ccc(Cl)cc2)CC1)c1ccc(F)cc1
Given back: -1

Asked: Identify the outcome logged in this assay for the molecule shown: CCOC(OCC)C(=O)c1ccccc1
Given back: -1

Asked: Identify the outcome logged in this assay for the molecule shown: CCCCc1oc2ccccc2c1C(=O)c1cc(I)c(OCCN(CC)CC)c(I)c1
Given back: 1

Asked: Identify the outcome logged in this assay for the molecule shown: Cc1cncc(C)c1
Given back: 1
